Test system: DeltatarO mutant
protocolNotes: S. aureus survival, RN4220 and DeltatarO strains – OD600, teichoic acid synthesis inhibitors, primary screen (AID 463173)
condition: S. aureus RN4220 wild type/DeltatarO growth, OD600, 18 h, screened at 18.75 µg/mL (by protocol)
In all, about 52,000 compounds went through this assay and about 4,300 (8.3%) were called active. No stated cut-off is given here; in the data, active means survival mostly below about 52% (no sharp cut-off); inactive means mostly above about 56%. Shown is part of a subset that was picked to be rich in actives.
Use one of these outcomes when replying: label 1 for active, label 0 for inactive

Ask: Tell me the assay call for CCN(CC)Cc1c(NC(=O)c2ccc(OC)cc2)sc2c1CCCC2 please.
Reply: label 0

Ask: Next record, please: CCCN(CCC)C(=O)CSc1nnc2cc(C)c3ccccc3n12
Reply: label 0

Ask: Next record, please: CCOc1ccc(NC(=O)Cn2cc(C(=O)c3ccc(C)c(C)c3)c(=O)c3cc4c(cc32)OCCO4)cc1
Reply: label 0

Ask: Next record, please: Cc1ccc(CNC(=O)CCN2C(=O)C(C)Oc3ccc(C)cc32)cc1 (stereo not given)
Reply: label 0

Ask: Next record, please: COc1ccc2[nH]c(C)c(CCNS(=O)(=O)c3cc(F)ccc3OC)c2c1
Reply: label 0

Ask: Next record, please: CCOC(=O)c1c(NC(=O)c2ccc(C)c(C)c2)sc2c1CCCCC2
Reply: label 1

Ask: Next record, please: Cc1ccc(N(C)C(=O)Cn2ncc3c([nH]c4ccccc43)c2=O)cc1C
Reply: label 1

Ask: Next record, please: CCOC(=O)c1c(NC(=O)c2ccc(OC)c(OC)c2)sc2c1CCCCC2
Reply: label 0

Ask: Next record, please: O=C(CN1c2ccc(Br)cc2-c2ccccc2S1(=O)=O)N1CCCCC1
Reply: label 0

Ask: Next record, please: COc1cc(Cl)c(C)cc1NC(=O)c1cnc(N2CCOCC2)c2ccccc12
Reply: label 0

Ask: Next record, please: Cc1cccc(Oc2ccc(NC(=O)CCC(=O)OCC(=O)c3ccc(Br)cc3)cc2)c1C
Reply: label 0

Ask: Next record, please: CCOC(=O)c1c(S(=O)(=O)N2CCCC(C(=O)Nc3cc(C)ccn3)C2)c(C)n(C)c1C (stereo not given)
Reply: label 0

* * *

System: DeltatarO mutant
protocolNotes: S. aureus survival, RN4220 and DeltatarO strains – OD600, teichoic acid synthesis inhibitors, primary screen (AID 463173)
condition: S. aureus RN4220 wild type/DeltatarO growth, OD600, 18 h, screened at 18.75 µg/mL (by protocol)
Among all 52,000 compounds or so, about 4,300 (8.3%) were called active. No stated cut-off is given here; in the data, active means survival mostly below about 52% (no sharp cut-off); inactive means mostly above about 56%. Shown is part of a subset that was picked to be rich in actives.
Use one of these outcomes when replying: active, inactive

>>> classification("COc1ccc(NC(=O)CSc2nc3ccccc3nc2N2CCC(C)CC2)cc1")
"inactive"
>>> classification("Cc1ccc(C(=O)c2oc3ccccc3c2NC(=O)c2cc(-c3ccccc3)on2)cc1")
"inactive"
>>> classification("O=C(Nc1cc(C(F)(F)F)ccc1Cl)c1cc(-c2cccs2)nc2ccccc12")
"inactive"

Alright, here's another compound for you.
Ask: Tell me the assay call for COc1ccc(NC(=O)CSc2nc3ccccc3nc2N2CCCCC2)cc1 please.
Reply: active

* * *

Tested on: DeltatarO mutant
protocolNotes: S. aureus survival, RN4220 and DeltatarO strains – OD600, teichoic acid synthesis inhibitors, primary screen (AID 463173)
condition: S. aureus RN4220 wild type/DeltatarO growth, OD600, 18 h, active compounds read low, screened at 18.75 µg/mL (by protocol)
Out of some 52,000 compounds screened, about 4,300 (8.3%) were called active. This excerpt belongs to a sample that is enriched for actives.
Binned survival; ranges: bottom (below 60%), middle (60% to below 90%), top (90% or more)

>>> classification("CCN(CC)C(=O)C1CCCN(c2ncnc3onc(C)c23)C1 (configuration not stated)")
"top"
>>> classification("Cc1ccc(NC(=O)CCCn2c(=O)c3cccn3c3ccccc32)c(C)c1")
"bottom"
>>> classification("CN(Cc1ccccc1)S(=O)(=O)c1nnc(NC(=O)c2cccc(Cl)c2)s1")
"bottom"
>>> classification("COc1ccc(NC(=O)CN2C(=O)C(=O)c3ccccc32)c(OC)c1")
"bottom"

Ask: // bin(item) where item = Cc1cccc(N(C)S(=O)(=O)c2nnc(NC(=O)C(C)Oc3ccccc3)s2)c1 (configuration not stated)
Reply: bottom

Ask: Next record, please: Cc1ccccc1C(=O)Nc1nnc(S(=O)(=O)N(C)Cc2ccccc2)s1
Reply: middle

Ask: Next record, please: COc1ccc(NC(=O)c2sc3nc4c(cc3c2N)CN(Cc2ccccc2)CC4)cc1
Reply: top

Ask: Next record, please: Cc1cc(=O)[nH]c(SCC(=O)OCc2ccccc2)c1C#N
Reply: top

Ask: Next record, please: COc1ccc(NC(=O)Cn2c(=O)c3cccn3c3ccccc32)cc1
Reply: bottom

Ask: Next record, please: Cc1cccc(C(=O)Nc2nnc(S(=O)(=O)N(C)Cc3ccccc3)s2)c1
Reply: bottom

Ask: Next record, please: COc1cc(NC(=O)Nc2nnc(N3CCCCC3)s2)cc(OC)c1
Reply: middle

Ask: Next record, please: CCOc1ccccc1NC(=O)c1sc2nc3c(cc2c1N)CN(Cc1ccccc1)CC3
Reply: middle

Ask: Next record, please: CC(=O)c1ccc(NC(=O)C2=CC(c3ccc4c(c3)OCO4)=NS(=O)(=O)N2C)cc1
Reply: top

Ask: Next record, please: Cc1cccc(C(=O)Nc2nnc(S(=O)(=O)N(C)c3ccccc3C)s2)c1
Reply: bottom

Ask: Next record, please: Clc1cccc(N2CCN(c3ncnc4c3nc3n4CCCC3)CC2)c1
Reply: top

Ask: Next record, please: COc1ccccc1NC(=O)C(C#N)Cc1cc2cc(C)cc(C)c2[nH]c1=O (configuration not stated)
Reply: top

* * *

survival: recorded values
Tested on: DeltatarO mutant
protocolNotes: S. aureus survival, RN4220 and DeltatarO strains – OD600, teichoic acid synthesis inhibitors, primary screen (AID 463173)
condition: S. aureus RN4220 wild type/DeltatarO growth, OD600, 18 h, active compounds read low, screened at 18.75 µg/mL (by protocol)
Among all 52,000 compounds or so, about 4,300 (8.3%) were called active. The full list was thinned out, with actives kept by preference.

>>> val("COc1ccccc1CNS(=O)(=O)c1ccc2c(c1)NC(=O)CC(=O)N2")
"89% (inactive)"

Ask: Recorded survival of COc1ccc(OC)c(NC(=O)c2cc(S(=O)(=O)NCCc3ccc(Cl)cc3)ccc2F)c1 , please.
Reply: 70% (inactive)

Ask: Next record, please: CCc1ccccc1NC(=O)c1cc(S(=O)(=O)NCCc2ccc(OC)c(OC)c2)ccc1F
Reply: 8% (active)

Ask: Next record, please: Cc1cc(C)c(NC(=O)Cn2nnc(-c3ccccc3)n2)c(C)c1
Reply: 63% (inactive)

Ask: Next record, please: CC(Cc1ccccc1)N=C1NS(=O)(=O)c2ccccc21 (stereo unspecified)
Reply: 81% (inactive)

Ask: Next record, please: COC(=O)c1cnc(N2CCN(c3ccc(OC)cc3)CC2)c2ccccc12
Reply: 62% (inactive)

Ask: Next record, please: N#Cc1ccc(-c2cccs2)nc1SCc1c(F)cccc1Cl
Reply: 36% (active)

Ask: Next record, please: Cc1[nH]c2ccccc2c1C1(O)C(=O)N(Cc2ccccc2)c2ccc(Br)cc21 (stereo unspecified)
Reply: 3% (active)

Ask: Next record, please: COc1ccccc1NC(=O)c1cc(S(=O)(=O)N(C)C2CCCCC2)ccc1F
Reply: 85% (inactive)

Ask: Next record, please: CCCCSCCCNC(=O)c1cn(C)c2ccc(S(=O)(=O)N3CCCCCC3)cc2c1=O
Reply: 63% (inactive)

Ask: Next record, please: CCc1c(C)nc2nncn2c1NCc1ccc(OC)cc1
Reply: 85% (inactive)

* * *

System: DeltatarO mutant
protocolNotes: S. aureus survival, RN4220 and DeltatarO strains – OD600, teichoic acid synthesis inhibitors, primary screen (AID 463173)
condition: S. aureus RN4220 wild type/DeltatarO growth, OD600, 18 h, screened at 18.75 µg/mL (by protocol)
Among all 52,000 compounds or so, about 4,300 (8.3%) were called active. Rule as the data show it: active = survival mostly below about 52% (no sharp cut-off); inactive = mostly above about 56%. The list comes from a sample in which actives are over-represented; it also holds close analogues and randomly drawn compounds.
Use one of these outcomes when replying: 1 (yes) (active), 0 (no) (inactive)

>>> classification("CCCNC(=O)c1cc2n(n1)CCCN(Cc1ccc(C)cc1)C2=O")
"0 (no)"
>>> classification("CCNC(=O)c1cc2n(n1)CCCN(Cc1ccc(C)cc1)C2=O")
"0 (no)"
>>> classification("COc1ccc(NC(=O)Cn2cnc3sc(C)c(S(=O)(=O)N4CCN(C)CC4)c3c2=O)cc1OC")
"0 (no)"
>>> classification("Cc1ccc(Sc2c(C)nn(C(C)(C)C)c2OC(=O)CC(C)C)cc1")
"1 (yes)"
>>> classification("CC1=C(c2ccc(C)cc2)S(=O)(=O)NC1=NCc1cccc(F)c1")
"0 (no)"
>>> classification("Cc1ccc(-n2ncc3c(NCCCn4ccnc4)ncnc32)cc1C")
"0 (no)"
>>> classification("COc1ccc(CNC(=O)CSc2nc3ccccc3nc2Cc2ccccc2OC)cc1")
"0 (no)"
>>> classification("O=C(CNC(=O)c1ccc(Cl)cc1)OCc1cc(=O)n2nc(C3CC3)sc2n1")
"0 (no)"
>>> classification("Cc1ccc(C)c(N2CCN(C(=O)c3cc(S(=O)(=O)N4CCCC4)cn3C)CC2)c1")
"0 (no)"
>>> classification("O=C(Cn1ccn(-c2ccc(F)c(F)c2)c(=O)c1=O)NCc1ccccc1")
"0 (no)"

Ask: Tell me the assay call for O=S(=O)(NCCc1nnc2ccc(SCc3ccccc3Cl)nn12)c1ccccc1 please.
Reply: 1 (yes)

Ask: Next record, please: CCC(=O)Oc1c(Sc2ccc(Cl)cc2)c(C)nn1C(C)(C)C
Reply: 0 (no)
